Settings: siRNA; note: test system not given here
HELM strings list units from the 5' end as sugar, base in round brackets, then linkage (d deoxyribose, r ribose, m 2'-O-methyl, p phosphodiester). Strings are as the collection lists them, not checked against the first reports. ss, as = sense and antisense strand; [una] = unlocked nucleic acid; [fl2r] = 2'-fluoro
metric: target mRNA knockdown (%)
Field format: number, assumed %, no unit text.

Quick one: target mRNA knockdown for RNA1{r(C)p.r(C)p.r(G)p.r(A)p.r(A)p.r(G)p.r(A)p.r(C)p.r(G)p.r(A)p.r(A)p.r(G)p.r(C)p.m(U)p.r(A)p.r(U)p.r(G)p.r(A)p.r(A)p.r(T)p.r(T)}|RNA2{r(U)p.r(U)p.m(C)p.r(A)p.r(U)p.r(A)p.r(G)p.r(C)p.r(U)p.r(U)p.r(C)p.r(G)p.r(U)p.r(C)p.r(U)p.r(U)p.r(C)p.r(G)p.r(G)p.r(T)p.r(T)}$$$RNA1{StrandType:ss}|RNA2{StrandType:as}$ ?
71

Quick one: target mRNA knockdown for RNA1{[fl2r](U)p.r(A)p.r(A)p.r(C)p.r(C)p.r(C)p.[fl2r](C)p.r(A)p.r(A)p.r(G)p.r(A)p.r(A)p.[fl2r](C)p.r(G)p.r(G)p.r(G)p.r(C)p.r(U)p.r(U)p.r(T)p.r(T)}|RNA2{r(A)p.r(A)p.r(G)p.r(C)p.r(C)p.r(C)p.[fl2r](G)p.r(U)p.r(U)p.r(C)p.r(U)p.[fl2r](U)p.r(G)p.r(G)p.r(G)p.r(G)p.r(U)p.[fl2r](U)p.r(A)p.r(T)p.r(T)}$$$RNA1{StrandType:ss}|RNA2{StrandType:as}$ ?
72

Quick one: target mRNA knockdown for RNA1{r(G)p.r(G)p.r(A)p.r(C)p.r(A)p.r(U)p.r(U)p.r(C)p.r(A)p.r(G)p.r(A)p.r(A)p.r(C)p.r(A)p.r(A)p.r(G)p.r(A)p.r(A)p.r(A)p.[una](U)p.[una](U)}|RNA2{r(U)p.r(U)p.[una](U)p.r(C)p.r(U)p.r(U)p.r(G)p.r(U)p.r(U)p.r(C)p.r(U)p.r(G)p.r(A)p.r(A)p.r(U)p.r(G)p.r(U)p.r(C)p.r(C)p.[una](U)p.[una](U)}$$$RNA1{StrandType:ss}|RNA2{StrandType:as}$ ?
0

====

Settings: siRNA
HELM strings list units from the 5' end as sugar, base in round brackets, then linkage (d deoxyribose, r ribose, m 2'-O-methyl, p phosphodiester). Strings are as the collection lists them, not checked against the first reports. ss, as = sense and antisense strand; [una] = unlocked nucleic acid
metric: target mRNA knockdown (%)
Field format: number, assumed %, no unit text.

Quick one: target mRNA knockdown for RNA1{m(A)p.m(A)p.m(G)p.m(G)p.m(A)p.m(G)p.m(A)p.m(U)p.m(C)p.m(A)p.m(A)p.m(C)p.m(A)p.m(U)p.m(U)p.m(U)p.m(U)p.m(C)p.m(A)p.r(T)p.r(T)}|RNA2{m(U)p.r(G)p.r(A)p.r(A)p.r(A)p.r(A)p.m(U)p.r(G)p.r(U)p.r(U)p.r(G)p.r(A)p.m(U)p.m(C)p.m(U)p.m(C)p.m(C)p.m(U)p.m(U)p.r(T)p.r(T)}$$$RNA1{StrandType:ss}|RNA2{StrandType:as}$ ?
29

Quick one: target mRNA knockdown for RNA1{r(G)p.r(U)p.r(A)p.r(U)p.r(G)p.r(A)p.r(C)p.r(C)p.r(G)p.r(A)p.r(C)p.r(U)p.r(A)p.r(C)p.r(G)p.r(C)p.r(G)p.r(U)p.r(A)p.r(T)p.r(T)}|RNA2{r(U)p.r(U)p.r(C)p.r(A)p.r(G)p.r(U)p.r(G)p.r(U)p.r(G)p.r(A)p.r(U)p.r(G)p.r(A)p.[una](C)p.r(A)p.r(C)p.r(U)p.r(U)p.r(G)p.r(T)p.r(T)}$$$RNA1{StrandType:ss}|RNA2{StrandType:as}$ ?
64
